Reported Ratio IC50 values follow for various compounds
- assayText: Selectivity index, ratio of IC50 for ovine COX1 to IC50 for human recombinant COX2
Residues, ends and D or L forms follow the SMILES beside them. *: point of attachment. Cbz = O=C(OCc1ccccc1)*

Input line: May I ask what Ratio IC50 has been recorded for CC(C)[C@H](NC(=O)[C@H](C)NC(=O)CNC(=O)OCc1ccccc1)C(=O)O (Cbz-Gly-Ala-Val-OH) ?
Output line: > 3

Input line: Ratio IC50 lookup needed for COC(=O)[C@@H](NC(=O)[C@H](C)NC(=O)CNC(=O)OCc1ccccc1)C(C)C (Cbz-Gly-Ala-Val-OMe) , thanks.
Output line: 80

Input line: Can you look up the measured Ratio IC50 of COC(=O)CNC(=O)CNC(=O)OCc1ccccc1 (Cbz-Gly-Gly-OMe) for me?
Output line: > 10

Input line: Which Ratio IC50 reading was recorded for the compound COC(=O)[C@@H](NC(=O)[C@H](C)NC(=O)CN)C(C)C (H-Gly-Ala-Val-OMe) ?
Output line: > 1

----------
- assayTarget: Prostaglandin G/H synthase 2 (Homo sapiens, UniProt P35354)
- Sequence (P35354 whole entry): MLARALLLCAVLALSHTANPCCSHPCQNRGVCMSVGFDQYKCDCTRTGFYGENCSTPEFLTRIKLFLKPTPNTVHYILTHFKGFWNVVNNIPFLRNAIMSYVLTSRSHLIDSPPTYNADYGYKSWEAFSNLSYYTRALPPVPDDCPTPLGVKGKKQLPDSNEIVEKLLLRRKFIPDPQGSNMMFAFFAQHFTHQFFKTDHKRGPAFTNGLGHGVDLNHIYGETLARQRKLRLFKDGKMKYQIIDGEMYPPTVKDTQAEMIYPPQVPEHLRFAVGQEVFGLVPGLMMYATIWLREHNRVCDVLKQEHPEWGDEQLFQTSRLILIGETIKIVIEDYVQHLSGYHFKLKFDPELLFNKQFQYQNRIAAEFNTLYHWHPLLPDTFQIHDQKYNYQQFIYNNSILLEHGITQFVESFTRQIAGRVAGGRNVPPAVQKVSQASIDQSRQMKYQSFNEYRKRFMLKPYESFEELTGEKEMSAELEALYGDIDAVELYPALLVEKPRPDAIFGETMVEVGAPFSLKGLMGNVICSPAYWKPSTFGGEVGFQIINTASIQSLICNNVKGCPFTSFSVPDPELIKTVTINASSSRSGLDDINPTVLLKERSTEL
- assayText: Inhibition of human recombinant COX2 assessed as reduction in PGH2-derived PGF2alpha using arachidonic acid as substrate preincubated for 10 mins followed by substrate addition measured after 2 mins by enzyme immunoassay
Residues, ends and D or L forms follow the SMILES beside them. *: point of attachment. Cbz = O=C(OCc1ccccc1)*
measurementType: IC50 (nM)

>  <compound>
COC(=O)[C@H](CC(C)C)NC(=O)[C@H](Cc1ccccc1)NC(=O)CNC(=O)CN (H-GGFL-OMe)

>  <IC50 [nM]>
60

$$$$

(a) COC(=O)[C@H](C)NC(=O)[C@H](CC(C)C)NC(=O)CNC(=O)[C@@H](NC(=O)OCc1ccccc1)C(C)C (Cbz-VGLA-OMe)
(b) COC(=O)[C@H](CC(C)C)NC(=O)CNC(=O)[C@@H](NC(=O)OCc1ccccc1)C(C)C (Cbz-Val-Gly-Leu-OMe)
(c) COC(=O)[C@H](CC(C)C)NC(=O)[C@@H](NC(=O)[C@H](C)NC(=O)CNC(=O)OCc1ccccc1)C(C)C (Cbz-GAVL-OMe)
(d) COC(=O)CNC(=O)CNC(=O)OCc1ccccc1 (Cbz-Gly-Gly-OMe)
Input line: Rank the items in ascending order with respect to IC50. API: response body holds the labels in the requested order.
Output line: a, d, c, b

----------
- assayTarget: Prostaglandin G/H synthase 1 (Ovis aries)
- Sequence (P05979 whole entry): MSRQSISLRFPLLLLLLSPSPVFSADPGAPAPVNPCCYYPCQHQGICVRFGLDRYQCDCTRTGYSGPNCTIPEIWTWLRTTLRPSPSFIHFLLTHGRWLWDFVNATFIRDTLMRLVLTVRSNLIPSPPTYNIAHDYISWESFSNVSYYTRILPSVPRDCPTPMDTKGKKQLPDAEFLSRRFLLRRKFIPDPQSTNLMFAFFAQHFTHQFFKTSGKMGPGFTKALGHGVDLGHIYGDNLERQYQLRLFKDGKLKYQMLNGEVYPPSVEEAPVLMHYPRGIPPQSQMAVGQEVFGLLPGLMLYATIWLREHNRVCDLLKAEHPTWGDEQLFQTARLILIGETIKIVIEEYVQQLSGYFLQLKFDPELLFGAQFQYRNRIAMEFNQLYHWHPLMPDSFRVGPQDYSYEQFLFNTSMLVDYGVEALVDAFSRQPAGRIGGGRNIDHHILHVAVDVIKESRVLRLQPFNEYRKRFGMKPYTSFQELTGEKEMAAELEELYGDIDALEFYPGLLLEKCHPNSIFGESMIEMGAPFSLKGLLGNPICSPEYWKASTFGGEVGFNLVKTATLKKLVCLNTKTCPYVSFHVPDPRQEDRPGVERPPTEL
- assayText: Inhibition of ovine COX1 assessed as reduction in PGH2-derived PGF2alpha using arachidonic acid as substrate preincubated for 10 mins followed by substrate addition measured after 2 mins by enzyme immunoassay
Residues, ends and D or L forms follow the SMILES beside them. *: point of attachment. Cbz = O=C(OCc1ccccc1)*
# IC50 values compiled below

See these solved cases before continuing.
>  <compound>
COC(=O)[C@H](CC(C)C)NC(=O)[C@H](Cc1ccccc1)NC(=O)CNC(=O)CN (H-GGFL-OMe)

>  <IC50>
6 µM

$$$$
>  <compound>
COC(=O)[C@H](CC(C)C)NC(=O)CNC(=O)[C@@H](NC(=O)OCc1ccccc1)C(C)C (Cbz-Val-Gly-Leu-OMe)

>  <IC50>
> 10 µM

$$$$
>  <compound>
CC(C)C[C@H](NC(=O)[C@H](Cc1ccccc1)NC(=O)CNC(=O)CN)C(=O)O (H-GGFL-OH)

>  <IC50>
> 10 µM

$$$$

Input line: Would you kindly share the measured IC50 for COC(=O)[C@H](C)NC(=O)[C@H](CC(C)C)NC(=O)CNC(=O)[C@@H](NC(=O)OCc1ccccc1)C(C)C (Cbz-VGLA-OMe) ?
Output line: > 10 µM

----------
- assayText: Selectivity index, ratio of IC50 for ovine COX1 to IC50 for human recombinant COX2
Residues, ends and D or L forms follow the SMILES beside them. *: point of attachment. Cbz = O=C(OCc1ccccc1)*
measurementType: Ratio IC50

>  <compound>
CC(C)C[C@H](NC(=O)CNC(=O)[C@@H](NC(=O)OCc1ccccc1)C(C)C)C(=O)N[C@@H](C)C(=O)O (Cbz-VGLA-OH)

>  <Ratio IC50>
6

$$$$
>  <compound>
CC(C)[C@H](NC(=O)[C@H](C)NC(=O)CN)C(=O)O (H-Gly-Ala-Val-OH)

>  <Ratio IC50>
45

$$$$
>  <compound>
COC(=O)[C@H](CC(C)C)NC(=O)[C@H](Cc1ccccc1)NC(=O)CNC(=O)CN (H-GGFL-OMe)

>  <Ratio IC50>
100

$$$$

(1) CC(C)C[C@H](NC(=O)[C@H](C)NC(=O)[C@@H](NC(=O)CNC(=O)OCc1ccccc1)C(C)C)C(=O)O (Cbz-GVAL-OH)
(2) CC(C)C[C@H](NC(=O)[C@H](Cc1ccccc1)NC(=O)CNC(=O)CNC(=O)OCc1ccccc1)C(=O)O (Cbz-GGFL-OH)
Input line: // which entry has the larger Ratio IC50 value, 1 or 2 ? In your reply, give the label of the chosen option.
Output line: 1
(1: 10, 2: 6)

----------
- assayTarget: Prostaglandin G/H synthase 1 (Ovis aries)
- Sequence (P05979 whole entry): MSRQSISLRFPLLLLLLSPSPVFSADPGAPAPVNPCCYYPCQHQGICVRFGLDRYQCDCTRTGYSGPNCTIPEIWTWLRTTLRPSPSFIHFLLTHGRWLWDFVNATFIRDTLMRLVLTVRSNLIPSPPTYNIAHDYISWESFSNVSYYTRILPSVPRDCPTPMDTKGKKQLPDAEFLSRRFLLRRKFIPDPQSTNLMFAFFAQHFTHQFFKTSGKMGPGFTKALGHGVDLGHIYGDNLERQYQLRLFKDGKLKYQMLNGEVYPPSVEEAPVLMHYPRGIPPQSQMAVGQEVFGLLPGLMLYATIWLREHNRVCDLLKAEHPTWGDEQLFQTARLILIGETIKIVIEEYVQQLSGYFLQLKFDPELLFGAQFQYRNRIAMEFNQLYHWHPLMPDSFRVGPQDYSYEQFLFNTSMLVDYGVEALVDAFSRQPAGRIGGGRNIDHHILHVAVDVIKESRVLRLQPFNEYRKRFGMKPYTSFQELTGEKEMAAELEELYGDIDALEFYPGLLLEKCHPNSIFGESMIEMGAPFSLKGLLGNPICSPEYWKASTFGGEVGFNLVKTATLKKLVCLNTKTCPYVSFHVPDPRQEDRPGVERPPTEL
Residues, ends and D or L forms follow the SMILES beside them. *: point of attachment. Cbz = O=C(OCc1ccccc1)*
measurementType: IC50 (µM)

>  <compound>
CC(C)C[C@H](NC(=O)CNC(=O)[C@@H](NC(=O)OCc1ccccc1)C(C)C)C(=O)N[C@@H](C)C(=O)O (Cbz-VGLA-OH)

>  <quantityUnit>
µM

>  <IC50>
0.3

$$$$

(A) CC(C)C[C@H](NC(=O)[C@H](C)NC(=O)[C@@H](NC(=O)CNC(=O)OCc1ccccc1)C(C)C)C(=O)O (Cbz-GVAL-OH)
(B) CC(C)[C@H](NC(=O)[C@H](C)NC(=O)CN)C(=O)O (H-Gly-Ala-Val-OH)
Input line: Could you determine which record has the numerically smaller IC50? Candidates: A and B To answer, give the label that identifies your chosen option.
Output line: A
(A: 3 µM, B: 9 µM)

----------
Prostaglandin G/H synthase 1 (Ovis aries, UniProt P05979) measurements of IC50, listed per entry.
Residues, ends and D or L forms follow the SMILES beside them. *: point of attachment. Cbz = O=C(OCc1ccccc1)*

>  <molecule>
CC(C)[C@H](NC(=O)OCc1ccccc1)C(=O)NCC(=O)O (Cbz-Val-Gly-OH)

>  <IC50>
> 10 µM

$$$$
>  <molecule>
COC(=O)[C@@H](NC(=O)[C@H](C)NC(=O)CNC(=O)OCc1ccccc1)C(C)C (Cbz-Gly-Ala-Val-OMe)

>  <IC50>
8 µM

$$$$
>  <molecule>
O=C(O)CNC(=O)CNC(=O)OCc1ccccc1 (Cbz-Gly-Gly-OH)

>  <IC50>
> 10 µM

$$$$
>  <molecule>
CC(C)C[C@H](NC(=O)[C@@H](NC(=O)[C@H](C)NC(=O)CNC(=O)OCc1ccccc1)C(C)C)C(=O)O (Cbz-GAVL-OH)

>  <IC50>
> 10 µM

$$$$
>  <molecule>
COC(=O)[C@H](CC(C)C)NC(=O)[C@@H](NC(=O)[C@H](C)NC(=O)CNC(=O)OCc1ccccc1)C(C)C (Cbz-GAVL-OMe)

>  <IC50>
> 10 µM

$$$$

Input line: Which IC50 is reported for this molecule? COC(=O)[C@H](CC(C)C)NC(=O)[C@H](C)NC(=O)[C@@H](NC(=O)CNC(=O)OCc1ccccc1)C(C)C (Cbz-GVAL-OMe)
Output line: > 10 µM

Input line: GET /values?readout=IC50&item= COC(=O)[C@H](CC(C)C)NC(=O)CNC(=O)[C@@H](N)C(C)C (H-Val-Gly-Leu-OMe)
Output line: > 10 µM

Input line: What value of IC50 has been reported for the following molecule? COC(=O)CNC(=O)[C@@H](NC(=O)OCc1ccccc1)C(C)C (Cbz-Val-Gly-OMe)
Output line: > 10 µM

Input line: // returns reported IC50 for input COC(=O)[C@@H](NC(=O)[C@H](C)NC(=O)CN)C(C)C (H-Gly-Ala-Val-OMe)
Output line: > 10 µM

Input line: Would you kindly share the measured IC50 for CC(C)C[C@H](NC(=O)[C@H](Cc1ccccc1)NC(=O)CNC(=O)CNC(=O)OCc1ccccc1)C(=O)O (Cbz-GGFL-OH) ?
Output line: 3 µM

Reference source: ChEMBL document CHEMBL3808358
